The measured values listed here are drawn from patent US20260274955A1.

target: Anti-CD28 Fab (SEQ ID NOs: 202, 203); assay: phage binding ELISA on captured Fab;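 further: clonal phage supernatants added briefly to wells pre-incubated with CD28 antigen or with blocking buffer only, then washed, bound phage read by ELISA using HRP-coupled anti-M13 antibody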
Sequence (VH, as listed by the source, chain 1 of 2): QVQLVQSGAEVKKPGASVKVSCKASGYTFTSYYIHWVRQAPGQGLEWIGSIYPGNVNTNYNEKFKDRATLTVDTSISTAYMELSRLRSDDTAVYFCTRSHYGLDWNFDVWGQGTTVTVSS
Sequence (VL, as listed by the source, chain 2 of 2): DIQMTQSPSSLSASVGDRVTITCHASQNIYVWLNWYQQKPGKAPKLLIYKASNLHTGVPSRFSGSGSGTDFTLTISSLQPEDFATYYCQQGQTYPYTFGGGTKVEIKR
Measured Anti-CD28 Fab signal, listed per entry.
OUTCOME MEASURE: Anti-CD28 Fab signal

- BINDER: "YCDGHLPEYMMKCL [Phage-78]"
  OBSERVED VALUE: 2.34
- BINDER: "YCDGHLPEYMSKCL [Phage-75]"
  OBSERVED VALUE: 2.35
- BINDER: "YCWSHSPPFIKKCY [Phage-39]"
  OBSERVED VALUE: 2.06
- BINDER: "YCDGHSPEYILKCL [Phage-93]"
  OBSERVED VALUE: 2.31
- BINDER: "YCDGHLDEYMAKCL [Phage-94]"
  OBSERVED VALUE: 2.31
- BINDER: "YCAGHLPEYMEKCL [Phage-128]"
  OBSERVED VALUE: 2.24
- BINDER: "YCAGHSPINIGKCL [Phage-10]"
  OBSERVED VALUE: 1.49
- BINDER: "YCDGHLPIYMAKCL [Phage-100]"
  OBSERVED VALUE: 2.3
